Test system: MCF-10A cells
Assay explanation: MTT cytotoxicity assay
Run parameters: read-out: IC50 ± SD; MCF-10A (non-cancerous), 48 h, MTT; * precipitation of the complex
IC50 under 20 µM gets rule met, anything at or over 20 µM gets rule not met.

Cc1cc(C)[nH]n1.Clc1ccc([O][Re])c2ncccc12.[C-]#[O+].[C-]#[O+].[C-]#[O+] [complex 11, [Re(CO)3(ClQ)Hdmpz]]	rule met
N.N.[Cl][Pt][Cl] [cisplatin, reference compound]	rule not met
Clc1ccc([O][Re])c2ncccc12.[C-]#[O+].[C-]#[O+].[C-]#[O+].c1ccc(-c2ccn[nH]2)cc1 [complex 12, [Re(CO)3(ClQ)HPhpz]]	rule met
Cc1ncc[nH]1.[C-]#[O+].[C-]#[O+].[C-]#[O+].[Re][O]c1cccc2cccnc12 [complex 2, [Re(CO)3(Q)MeHim]]	rule not met
[C-]#[O+].[C-]#[O+].[C-]#[O+].[Re][O]c1cccc2cccnc12.c1c[nH]cn1 [complex 1, [Re(CO)3(Q)Him]]	rule not met
Cc1ccc2cccc([O][Re])c2n1.Cc1ncc[nH]1.[C-]#[O+].[C-]#[O+].[C-]#[O+] [complex 6, [Re(CO)3(MeQ)MeHim]]	rule not met
Clc1ccc([O][Re])c2ncccc12.[C-]#[O+].[C-]#[O+].[C-]#[O+].c1c[nH]cn1 [complex 9, [Re(CO)3(ClQ)Him]]	rule not met
Cc1ccc2cccc([O][Re])c2n1.[C-]#[O+].[C-]#[O+].[C-]#[O+].c1c[nH]cn1 [complex 5, [Re(CO)3(MeQ)Him]]	rule not met
Cc1cc(C)[nH]n1.Cc1ccc2cccc([O][Re])c2n1.[C-]#[O+].[C-]#[O+].[C-]#[O+] [complex 7, [Re(CO)3(MeQ)Hdmpz]]	rule not met
Cc1ccc2cccc([O][Re])c2n1.[C-]#[O+].[C-]#[O+].[C-]#[O+].c1ccc(-c2ccn[nH]2)cc1 [complex 8, [Re(CO)3(MeQ)HPhpz]]	rule not met
[C-]#[O+].[C-]#[O+].[C-]#[O+].[Re][O]c1cccc2cccnc12.c1ccc(-c2ccn[nH]2)cc1 [complex 4, [Re(CO)3(Q)HPhpz]·0.5CH3CN]	rule not met
Cc1cc(C)[nH]n1.[C-]#[O+].[C-]#[O+].[C-]#[O+].[Re][O]c1cccc2cccnc12 [complex 3, [Re(CO)3(Q)Hdmpz]]	rule not met

* * *

Tested on: MCF-10A cells
Assay explanation: MTT cytotoxicity assay
Run parameters: read-out: IC50 ± SD; MCF-10A (non-cancerous), 24 h, MTT; * precipitation of the complex
Method: The cytotoxicities for studied compounds were evaluated against leukemia cells (HL-60), as well as ovarian (SKOV-3), prostate (PC-3), and breast (MCF-7) cancer cell lines. The potential selectivity of these compounds towards cancer cells was assessed by determination of their cytotoxicities towards breast non-cancerous cells (MCF-10A). For comparison, cisplatin was added to the cytotoxicity assays. Bacterial strains and cell lines were obtained from the American Type Culture Collection (ATCC).[59] […]
pIC50: −log10 of the molar value.
Below is a list of entries, each paired with its recorded pIC50 value.
Observable: pIC50

Clc1ccc([O][Re])c2ncccc12.[C-]#[O+].[C-]#[O+].[C-]#[O+].c1c[nH]cn1 [complex 9, [Re(CO)3(ClQ)Him]]	4.38
[C-]#[O+].[C-]#[O+].[C-]#[O+].[Re][O]c1cccc2cccnc12.c1c[nH]cn1 [complex 1, [Re(CO)3(Q)Him]]	4.41
Cc1cc(C)[nH]n1.Clc1ccc([O][Re])c2ncccc12.[C-]#[O+].[C-]#[O+].[C-]#[O+] [complex 11, [Re(CO)3(ClQ)Hdmpz]]	4.62
Cc1ccc2cccc([O][Re])c2n1.[C-]#[O+].[C-]#[O+].[C-]#[O+].c1ccc(-c2ccn[nH]2)cc1 [complex 8, [Re(CO)3(MeQ)HPhpz]]	4.44
Cc1ccc2cccc([O][Re])c2n1.Cc1ncc[nH]1.[C-]#[O+].[C-]#[O+].[C-]#[O+] [complex 6, [Re(CO)3(MeQ)MeHim]]	4.18

* * *

System: PC-3 cells
Assay explanation: MTT cytotoxicity assay
Type: cell-based, human
Run parameters: PC-3, 48 h, MTT; read-out: IC50 ± SD
Would you mind sorting the entries by IC50 according to these classes? LOW (below 20 µM), MEDIUM (20 µM to below 30 µM), HIGH (30 µM or more)

Cc1ccc2cccc([O][Re])c2n1.[C-]#[O+].[C-]#[O+].[C-]#[O+].c1ccc(-c2ccn[nH]2)cc1 [complex 8, [Re(CO)3(MeQ)HPhpz]]	HIGH
Cc1ccc2cccc([O][Re])c2n1.[C-]#[O+].[C-]#[O+].[C-]#[O+].c1c[nH]cn1 [complex 5, [Re(CO)3(MeQ)Him]]	MEDIUM
[C-]#[O+].[C-]#[O+].[C-]#[O+].[Re][O]c1cccc2cccnc12.c1ccc(-c2ccn[nH]2)cc1 [complex 4, [Re(CO)3(Q)HPhpz]·0.5CH3CN]	MEDIUM
Clc1ccc([O][Re])c2ncccc12.[C-]#[O+].[C-]#[O+].[C-]#[O+].c1c[nH]cn1 [complex 9, [Re(CO)3(ClQ)Him]]	MEDIUM
Cc1cc(C)[nH]n1.Cc1ccc2cccc([O][Re])c2n1.[C-]#[O+].[C-]#[O+].[C-]#[O+] [complex 7, [Re(CO)3(MeQ)Hdmpz]]	LOW
Cc1ccc2cccc([O][Re])c2n1.Cc1ncc[nH]1.[C-]#[O+].[C-]#[O+].[C-]#[O+] [complex 6, [Re(CO)3(MeQ)MeHim]]	MEDIUM
[C-]#[O+].[C-]#[O+].[C-]#[O+].[Re][O]c1cccc2cccnc12.c1c[nH]cn1 [complex 1, [Re(CO)3(Q)Him]]	MEDIUM
Cc1cc(C)[nH]n1.[C-]#[O+].[C-]#[O+].[C-]#[O+].[Re][O]c1cccc2cccnc12 [complex 3, [Re(CO)3(Q)Hdmpz]]	LOW
Cc1cc(C)[nH]n1.Clc1ccc([O][Re])c2ncccc12.[C-]#[O+].[C-]#[O+].[C-]#[O+] [complex 11, [Re(CO)3(ClQ)Hdmpz]]	MEDIUM
Clc1ccc([O][Re])c2ncccc12.[C-]#[O+].[C-]#[O+].[C-]#[O+].c1ccc(-c2ccn[nH]2)cc1 [complex 12, [Re(CO)3(ClQ)HPhpz]]	MEDIUM
Cc1ncc[nH]1.[C-]#[O+].[C-]#[O+].[C-]#[O+].[Re][O]c1cccc2cccnc12 [complex 2, [Re(CO)3(Q)MeHim]]	HIGH
